Sourced from the kinase profiling compilation of Christmann-Franck et al. (2016)

Listed here are compounds together with their documented residual activity.
experimental_system: UniProtKB Q06418
Sequence (Q06418 whole entry, looked up): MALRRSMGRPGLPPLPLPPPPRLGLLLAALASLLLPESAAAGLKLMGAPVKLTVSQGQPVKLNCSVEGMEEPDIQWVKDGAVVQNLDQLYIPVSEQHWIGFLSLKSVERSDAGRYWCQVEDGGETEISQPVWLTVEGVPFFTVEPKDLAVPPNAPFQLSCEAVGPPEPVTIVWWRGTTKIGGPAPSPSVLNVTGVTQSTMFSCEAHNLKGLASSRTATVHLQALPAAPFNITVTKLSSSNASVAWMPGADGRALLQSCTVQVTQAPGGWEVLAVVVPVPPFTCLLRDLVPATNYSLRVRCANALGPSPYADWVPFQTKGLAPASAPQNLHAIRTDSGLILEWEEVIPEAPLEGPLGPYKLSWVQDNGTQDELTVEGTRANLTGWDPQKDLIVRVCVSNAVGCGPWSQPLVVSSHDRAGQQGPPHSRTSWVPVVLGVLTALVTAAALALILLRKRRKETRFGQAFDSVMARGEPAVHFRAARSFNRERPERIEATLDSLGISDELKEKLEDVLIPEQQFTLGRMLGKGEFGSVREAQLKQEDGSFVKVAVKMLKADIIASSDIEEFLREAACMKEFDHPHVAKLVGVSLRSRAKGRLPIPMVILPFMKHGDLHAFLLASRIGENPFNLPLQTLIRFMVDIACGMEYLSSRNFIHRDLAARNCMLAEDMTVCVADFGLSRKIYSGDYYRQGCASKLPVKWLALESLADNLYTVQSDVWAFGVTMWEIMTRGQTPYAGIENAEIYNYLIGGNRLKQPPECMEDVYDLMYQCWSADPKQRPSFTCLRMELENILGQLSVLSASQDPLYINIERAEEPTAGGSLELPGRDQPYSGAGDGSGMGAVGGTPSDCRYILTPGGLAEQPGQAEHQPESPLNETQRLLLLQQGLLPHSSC
protocol_description: radiometric filter-binding kinase assay, Kinase HotSpot
run_parameters: compound 0.5 µM; ATP 10 µM
Enter your answer as a number in %; do not include the unit.

As a guide, the following entries are already answered.
{"smiles_structure": "CN(C)c1ccc(/C=C2\\C(=O)Nc3ccccc32)cc1", "residual activity, %": 92.7}
{"smiles_structure": "COc1cc2ncnc(Nc3ccc(OCc4ccccc4)cc3)c2cc1OC", "residual activity, %": 86.9}

So what does the record say about residual activity for "CN(C)CCCn1cc(C2=C(c3c[nH]c4ccccc34)C(=O)NC2=O)c2ccccc21" ?
97.2

May I ask what residual activity has been recorded for "Cc1cncc2cccc(S(=O)(=O)N3CCCN(C(=O)CN)C[C@H]3C)c12" ?
98.9

Consider the compound "Cc1nc(-c2ccccc2)c(-c2ccncc2)o1" and give its measured residual activity.
109

====

experimental_system: UniProt Q05655
Sequence (Q05655 whole entry, looked up): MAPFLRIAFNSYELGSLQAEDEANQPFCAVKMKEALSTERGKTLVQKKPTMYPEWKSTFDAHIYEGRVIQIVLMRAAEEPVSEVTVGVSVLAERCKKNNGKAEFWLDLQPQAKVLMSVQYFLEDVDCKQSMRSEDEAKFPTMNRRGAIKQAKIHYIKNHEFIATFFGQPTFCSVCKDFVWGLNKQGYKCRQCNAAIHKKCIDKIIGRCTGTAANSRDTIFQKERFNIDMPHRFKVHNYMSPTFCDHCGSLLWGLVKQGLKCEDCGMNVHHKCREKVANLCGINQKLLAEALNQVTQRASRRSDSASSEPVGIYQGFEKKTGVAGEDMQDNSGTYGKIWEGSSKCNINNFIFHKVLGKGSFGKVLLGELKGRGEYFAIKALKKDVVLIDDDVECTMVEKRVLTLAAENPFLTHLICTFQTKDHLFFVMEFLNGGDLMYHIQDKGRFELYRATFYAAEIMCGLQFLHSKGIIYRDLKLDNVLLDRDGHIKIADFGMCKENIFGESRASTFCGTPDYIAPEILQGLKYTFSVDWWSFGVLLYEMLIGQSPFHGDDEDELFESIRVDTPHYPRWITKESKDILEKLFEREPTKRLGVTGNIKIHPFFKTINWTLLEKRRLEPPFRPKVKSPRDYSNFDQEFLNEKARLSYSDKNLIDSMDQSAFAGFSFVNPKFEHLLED
protocol_description: radiometric filter-binding kinase assay, Kinase HotSpot
run_parameters: compound 0.5 µM; ATP 10 µM
Binarize residual activity at 80%; below is true, at or above is false.

{"smiles_structure": "Cn1c2ccccc2c2c3c(c4c5ccccc5n(CCC#N)c4c21)CNC3=O", "class_name": "true"}
{"smiles_structure": "O=C1Nc2ccc(Br)cc2/C1=C\\c1cc2c([nH]1)CCCC2", "class_name": "false"}
{"smiles_structure": "CN(C)CCCn1cc(C2=C(c3c[nH]c4ccccc34)C(=O)NC2=O)c2ccccc21", "class_name": "true"}
{"smiles_structure": "O=C1NC(=O)c2c1c1c3ccccc3[nH]c1n1cncc21", "class_name": "true"}
{"smiles_structure": "c1ccc2c(-c3ccncc3)c[nH]c2c1", "class_name": "false"}
{"smiles_structure": "CN(C)S(=O)(=O)c1ccc2c(c1)/C(=C/c1cc3c([nH]1)CCCC3)C(=O)N2", "class_name": "false"}

Please look at the following compound next.
Item "Cc1cncc2cccc(S(=O)(=O)N3CCCN(C(=O)CN)C[C@H]3C)c12" : residual activity beneath 80%, strictly?
true

====

experimental_system: MAPK9 (human)
protocol_description: radiometric filter-binding kinase assay, Kinase HotSpot
run_parameters: compound 0.5 µM; ATP 10 µM
property_label: residual activity (%)
Quick reminder: number only, in %, skip the unit.

Lookup: residual activity / MAPK9 (human) / "COc1ccc2c(c1)/C(=C/c1cnc[nH]1)C(O)=N2"
101

Give MAPK9 (human) residual activity for "COc1cc2ncnc(Nc3ccc(Oc4ccccc4)cc3)c2cc1OC"
99

Could you share what residual activity was measured for "COc1ccc(Cl)cc1NC(=O)Nc1cc(C)nc2ccccc12" , tested on MAPK9 (human)?
105

Report residual activity for "c1ccc2c(-c3ccncc3)c[nH]c2c1" tested on MAPK9 (human).
103

Missing value: residual activity, MAPK9 (human), entry "Cn1c2ccccc2c2c3c(c4c5ccccc5n(CCC#N)c4c21)CNC3=O" . Fill in?
86

GET /values?readout=residual activity&system=MAPK9 (human)&item= "CC(C)(C)c1cc(C=C(C#N)C#N)cc(Br)c1O"
103

====

experimental_system: MAPK8 (human)
protocol_description: radiometric filter-binding kinase assay, Kinase HotSpot
run_parameters: compound 0.5 µM; ATP 10 µM
residual activity values for the compounds below.
# output: bare number, implied unit %

For orientation, consider the following solved cases.
{"smiles_structure": "COc1ccc2c(c1)/C(=C/c1cnc[nH]1)C(O)=N2", "experimental_system": "MAPK8 (human)", "residual activity [%]": 95.9}
{"smiles_structure": "CO[C@@H]1[C@H](N(C)C(=O)c2ccccc2)C[C@H]2O[C@]1(C)n1c3ccccc3c3c4c(c5c6ccccc6n2c5c31)C(=O)NC4", "experimental_system": "MAPK8 (human)", "residual activity [%]": 88.3}
{"smiles_structure": "CN(C)c1ccc(/C=C2\\C(=O)Nc3ccccc32)cc1", "experimental_system": "MAPK8 (human)", "residual activity [%]": 103}
{"smiles_structure": "NC(=O)c1cccc(-c2cc(Nc3ccc(OC(F)(F)F)cc3)ncn2)c1", "experimental_system": "MAPK8 (human)", "residual activity [%]": 90.3}

Now examine the next entry.
Given the entry "COc1ccc2c(c1)c(C1=C(c3c[nH]c4ccccc34)C(=O)NC1=O)cn2CCCN(C)C" , report its measured residual activity.
80

====

experimental_system: ITK (human) (UniProt Q08881)
Sequence (Q08881 whole entry, looked up): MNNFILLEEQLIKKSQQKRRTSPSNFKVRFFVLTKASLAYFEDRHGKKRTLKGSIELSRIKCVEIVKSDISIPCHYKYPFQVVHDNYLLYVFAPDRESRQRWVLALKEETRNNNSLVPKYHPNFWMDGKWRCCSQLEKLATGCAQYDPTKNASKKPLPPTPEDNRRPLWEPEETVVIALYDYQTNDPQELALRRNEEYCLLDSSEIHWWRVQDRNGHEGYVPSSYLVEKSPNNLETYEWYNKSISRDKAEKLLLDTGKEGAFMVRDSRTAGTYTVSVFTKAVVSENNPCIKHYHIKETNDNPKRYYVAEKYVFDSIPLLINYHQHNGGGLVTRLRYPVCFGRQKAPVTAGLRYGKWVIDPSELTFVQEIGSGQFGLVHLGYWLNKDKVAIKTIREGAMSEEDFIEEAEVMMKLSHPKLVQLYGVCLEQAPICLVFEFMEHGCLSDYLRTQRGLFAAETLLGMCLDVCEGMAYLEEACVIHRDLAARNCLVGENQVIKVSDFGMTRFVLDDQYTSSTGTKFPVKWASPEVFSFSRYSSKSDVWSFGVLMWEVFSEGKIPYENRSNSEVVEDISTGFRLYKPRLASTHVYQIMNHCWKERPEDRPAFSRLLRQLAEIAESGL
protocol_description: radiometric filter-binding kinase assay, Kinase HotSpot
run_parameters: compound 0.5 µM; ATP 10 µM
Items are presented alongside their recorded residual activity.
Could you write the number and then its unit?

Example entries and their recorded answers appear below.
{"smiles_structure": "O=C(c1cc2cc(O)ccc2[nH]1)c1cc2cc(O)ccc2[nH]1", "property_label": "residual activity", "data_value": "77.7%"}
{"smiles_structure": "NC(=O)c1cccc(-c2cc(Nc3ccc(OC(F)(F)F)cc3)ncn2)c1", "property_label": "residual activity", "data_value": "95.3%"}
{"smiles_structure": "O=C1c2ccccc2-c2nc3nnnn3nc21", "property_label": "residual activity", "data_value": "71.5%"}
{"smiles_structure": "CC(C)(C)c1cc(C=C(C#N)C#N)cc(Br)c1O", "property_label": "residual activity", "data_value": "98.4%"}
{"smiles_structure": "Cn1c2ccccc2c2c3c(c4c5ccccc5n(CCC#N)c4c21)CNC3=O", "property_label": "residual activity", "data_value": "4.32%"}

Continue with the compound presented below.
Form: Entry = "Cc1cccc(-c2nc(C(C)(C)C)[nH]c2-c2ccc3c(c2)OCO3)n1" | System = ITK (human) (UniProt Q08881) | residual activity = ____
95.8%

====

Item-by-item account of residual activity
experimental_system: PAK6 (human) (UniProt Q9NQU5)
Sequence (Q9NQU5 whole entry, looked up): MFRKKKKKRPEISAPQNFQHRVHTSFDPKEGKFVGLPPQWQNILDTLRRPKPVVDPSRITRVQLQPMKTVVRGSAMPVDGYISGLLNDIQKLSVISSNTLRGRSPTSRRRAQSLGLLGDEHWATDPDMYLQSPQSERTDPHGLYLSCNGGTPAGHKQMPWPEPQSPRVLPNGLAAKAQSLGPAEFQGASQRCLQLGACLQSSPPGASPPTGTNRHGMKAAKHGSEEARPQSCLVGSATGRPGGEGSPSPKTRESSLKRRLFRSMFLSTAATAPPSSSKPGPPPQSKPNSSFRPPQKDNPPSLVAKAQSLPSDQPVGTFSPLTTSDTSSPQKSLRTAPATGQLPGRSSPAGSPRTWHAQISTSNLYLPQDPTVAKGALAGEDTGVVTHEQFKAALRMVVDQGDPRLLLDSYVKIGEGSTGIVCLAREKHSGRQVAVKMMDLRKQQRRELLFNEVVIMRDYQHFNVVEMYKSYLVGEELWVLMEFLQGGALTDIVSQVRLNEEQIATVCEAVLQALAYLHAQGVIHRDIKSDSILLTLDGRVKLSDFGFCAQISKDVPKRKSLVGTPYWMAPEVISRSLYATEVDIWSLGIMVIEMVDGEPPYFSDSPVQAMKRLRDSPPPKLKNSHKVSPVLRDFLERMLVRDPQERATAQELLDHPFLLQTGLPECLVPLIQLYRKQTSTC
protocol_description: radiometric filter-binding kinase assay, Kinase HotSpot
run_parameters: compound 0.5 µM; ATP 10 µM
Write the value in % as a bare number.

{"smiles_structure": "Cc1cncc2cccc(S(=O)(=O)N3CCCN(C(=O)CN)C[C@H]3C)c12", "experimental_system": "PAK6 (human) (UniProt Q9NQU5)", "data_value": 108}

Record request: residual activity value, item "CCCCc1c(-c2ccc(OC)cc2)[nH]c2nccnc12"
96.8

Look up residual activity for this compound: "O=C1NC(=O)c2c1c1c3ccccc3[nH]c1n1cncc21"
85.5

Looking for the measured residual activity of "CN(C)S(=O)(=O)c1ccc2c(c1)/C(=C/c1cc3c([nH]1)CCCC3)C(=O)N2" , can you help?
98.9

Quick one: residual activity for "COc1cc2ncnc(Nc3ccc(OCc4ccccc4)cc3)c2cc1OC" ?
95.4

Name the recorded residual activity for "CC(C)(C)c1cc(C=C(C#N)C#N)cc(Br)c1O" .
101

====

experimental_system: MARK1 (human)
protocol_description: radiometric filter-binding kinase assay, Kinase HotSpot
run_parameters: compound 0.5 µM; ATP 10 µM
Collected residual activity values appear next to each entry.
Expressed in %, but write only the number.

Solved cases (2 shown):
{"smiles_structure": "N#C/C(=C\\c1ccc(O)c(O)c1)C(=O)NCc1ccccc1", "unit_abbrev": "%", "data_value": 93.8}
{"smiles_structure": "C[C@@H]1CCN(C(=O)CC#N)C[C@@H]1N(C)c1ncnc2[nH]ccc12", "unit_abbrev": "%", "data_value": 119}

Report residual activity for "CO[C@@H]1[C@H](N(C)C(=O)c2ccccc2)C[C@H]2O[C@]1(C)n1c3ccccc3c3c4c(c5c6ccccc6n2c5c31)C(=O)NC4" please.
4.09

====

Each entry below lists one item and its recorded residual activity value.
experimental_system: CDC42BPA (human) (UniProt Q5VT25)
Sequence (Q5VT25 whole entry, looked up): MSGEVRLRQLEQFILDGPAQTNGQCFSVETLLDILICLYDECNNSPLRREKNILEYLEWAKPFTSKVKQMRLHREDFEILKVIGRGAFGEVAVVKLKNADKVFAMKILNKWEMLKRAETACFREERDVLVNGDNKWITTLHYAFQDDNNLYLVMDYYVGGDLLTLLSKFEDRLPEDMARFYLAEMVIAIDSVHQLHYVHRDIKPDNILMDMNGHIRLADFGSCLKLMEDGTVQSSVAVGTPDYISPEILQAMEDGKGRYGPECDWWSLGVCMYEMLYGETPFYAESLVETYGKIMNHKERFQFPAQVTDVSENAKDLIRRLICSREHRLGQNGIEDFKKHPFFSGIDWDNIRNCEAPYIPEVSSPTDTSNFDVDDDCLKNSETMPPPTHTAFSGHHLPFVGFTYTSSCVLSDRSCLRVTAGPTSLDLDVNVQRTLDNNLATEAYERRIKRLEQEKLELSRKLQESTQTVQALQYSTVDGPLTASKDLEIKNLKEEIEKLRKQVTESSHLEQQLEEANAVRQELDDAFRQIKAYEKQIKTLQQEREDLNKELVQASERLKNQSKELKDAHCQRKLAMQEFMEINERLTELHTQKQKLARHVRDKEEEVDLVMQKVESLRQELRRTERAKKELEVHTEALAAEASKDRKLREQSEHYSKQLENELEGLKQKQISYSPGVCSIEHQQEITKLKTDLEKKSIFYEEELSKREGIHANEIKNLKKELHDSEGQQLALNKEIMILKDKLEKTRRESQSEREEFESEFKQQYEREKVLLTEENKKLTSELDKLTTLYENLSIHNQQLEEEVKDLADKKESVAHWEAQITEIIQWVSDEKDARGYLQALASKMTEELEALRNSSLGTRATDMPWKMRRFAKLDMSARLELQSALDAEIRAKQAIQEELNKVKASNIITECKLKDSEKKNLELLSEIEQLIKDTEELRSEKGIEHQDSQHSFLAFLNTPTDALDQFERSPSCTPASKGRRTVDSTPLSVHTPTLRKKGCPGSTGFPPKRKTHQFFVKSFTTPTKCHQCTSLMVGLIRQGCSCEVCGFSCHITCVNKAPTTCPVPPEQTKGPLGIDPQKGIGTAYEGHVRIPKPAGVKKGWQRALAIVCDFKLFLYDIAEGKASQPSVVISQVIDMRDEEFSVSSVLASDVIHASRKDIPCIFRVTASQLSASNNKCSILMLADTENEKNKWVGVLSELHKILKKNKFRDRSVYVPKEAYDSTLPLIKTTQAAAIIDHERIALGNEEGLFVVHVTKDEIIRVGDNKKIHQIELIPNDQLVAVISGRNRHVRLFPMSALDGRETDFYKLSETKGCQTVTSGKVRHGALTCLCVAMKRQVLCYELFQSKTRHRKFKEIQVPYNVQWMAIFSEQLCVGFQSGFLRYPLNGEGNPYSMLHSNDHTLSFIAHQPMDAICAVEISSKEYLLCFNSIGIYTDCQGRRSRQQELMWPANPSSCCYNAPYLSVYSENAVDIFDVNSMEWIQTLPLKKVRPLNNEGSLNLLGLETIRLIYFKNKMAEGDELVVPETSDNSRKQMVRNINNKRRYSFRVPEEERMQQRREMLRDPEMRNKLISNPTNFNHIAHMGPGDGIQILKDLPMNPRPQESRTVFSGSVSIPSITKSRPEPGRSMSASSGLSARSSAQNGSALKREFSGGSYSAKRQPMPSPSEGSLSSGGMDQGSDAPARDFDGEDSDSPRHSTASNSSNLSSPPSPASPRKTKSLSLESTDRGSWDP
protocol_description: radiometric filter-binding kinase assay, Kinase HotSpot
run_parameters: compound 0.5 µM; ATP 10 µM
Express it in %; write the number only.

Study these solved cases before continuing.
{"smiles_structure": "Cc1cccc(-c2nc(C(C)(C)C)[nH]c2-c2ccc3c(c2)OCO3)n1", "property_label": "residual activity", "data_value": 89.6}
{"smiles_structure": "Fc1ccc(-c2nc3n(c2-c2ccncc2)CCS3)cc1", "property_label": "residual activity", "data_value": 88.7}
{"smiles_structure": "COc1ccc2c(c1)c(C1=C(c3c[nH]c4ccccc34)C(=O)NC1=O)cn2CCCN(C)C", "property_label": "residual activity", "data_value": 89.2}

Look at this molecule and give its reported residual activity. "N#Cc1c[nH]c2c[nH]/c(=N\Cc3cccnc3)cc2/c1=N\c1ccc(F)c(Cl)c1"
80

Query (molecule): "CCCCc1c(-c2ccc(OC)cc2)[nH]c2nccnc12" ; field requested: residual activity
99.7

Could you share which residual activity value was measured for "O=C1Nc2ccc(Br)cc2/C1=C\c1cc2c([nH]1)CCCC2" ?
81.9

Quick check: residual activity of "COc1cc2ncnc(Nc3ccc(OCc4ccccc4)cc3)c2cc1OC" ?
101

Quick one: residual activity of "CN(C)c1ccc(/C=C2\C(=O)Nc3ccccc32)cc1" ?
101

Which residual activity is listed for "COc1ccc(S(=O)(=O)N(CCO)c2ccccc2CN(C)C/C=C/c2ccc(Cl)cc2)cc1" ?
100

I have this molecule here, "O=C1C(Cl)=C(N2C(=O)CCC2=O)C(=O)c2ccccc21" , and I need its recorded residual activity.
103

Please give the measured residual activity for this molecule: "COc1ccc(Cl)cc1NC(=O)Nc1cc(C)nc2ccccc12"
98.8

Quick check: residual activity of "Cc1nc(-c2ccccc2)c(-c2ccncc2)o1" ?
91.9

// lookup residual activity for "O=C1c2ccccc2-c2nc3nnnn3nc21"
91.6

# input molecule: "Ic1cccc(CSc2nnc(-c3ccncc3)o2)c1" ; wanted: its residual activity
98.4

// lookup residual activity for "COc1cc2ncnc(Nc3ccc(Oc4ccccc4)cc3)c2cc1OC"
95.4

Which measured residual activity value corresponds to "CC(C)(C)c1cc(C=C(C#N)C#N)cc(Br)c1O" ?
101

Could you share which residual activity value was measured for "O=C(c1cc2cc(O)ccc2[nH]1)c1cc2cc(O)ccc2[nH]1" ?
90.2

Need residual activity, item "COc1ccc2c(c1)/C(=C/c1cnc[nH]1)C(O)=N2"
98.5

Tell me the measured residual activity of "Cc1cncc2cccc(S(=O)(=O)N3CCCN(C(=O)CN)C[C@H]3C)c12" , please.
95.1

Please report the recorded residual activity for "COc1cc(Nc2c(C#N)cnc3cc(OCCCN4CCN(C)CC4)c(OC)cc23)c(Cl)cc1Cl" .
112

Request the reported residual activity associated with "CN(C)CCCn1cc(C2=C(c3c[nH]c4ccccc34)C(=O)NC2=O)c2ccccc21"
97.1

Any idea what residual activity was measured for "C[C@@H]1CCN(C(=O)CC#N)C[C@@H]1N(C)c1ncnc2[nH]ccc12" ?
110
